assay-text: Cytotoxicity counterscreen for inhibitors of SARS-CoV-2 cell entry (AID 1645845); also: nearly all actives have a fitted effect of over 50% in size
particulars: cell viability (SARS-CoV-2 entry assay cells); series mostly up to 57.1 µM
Results filed as inconclusive are left out. Activity calls are given as the source filed them. Calls follow the shape of the full dose curve. Numbered stars: 1 amine (or outer) side, 2 acyl side, 3 side chain; on linkers, the order of the positions; unused ones are H or OH. Square brackets hold non-standard residues; d marks the D form. Side chains are listed from the residue outwards. Peptide text beside a SMILES is read from it. * marks the point of attachment. Ethylenediamine = C(CN[*:2])N[*:1]; Hyp = O=C(O)[C@@H]1C[C@@H](O)CN1; Phg = N[C@H](C(=O)O)c1ccccc1; CO = O=C([*:1])[*:2]; Bn = c1ccc(C*)cc1
measurement-label: outcome

1. Cc1ccc(NC(=O)Nc2nnc(Sc3ncnc4cc(OCCCN5CCOCC5)ccc34)s2)cc1 = inactive
2. CC(C)=CCC/C(C)=C/CC/C(C)=C/CSc1ccccc1C(=O)O = inactive
3. FC(F)OC(Cl)C(F)(F)F (stereo unspecified) = inactive
4. O=C(OCCN(CCO)CCO)c1ccccc1O = inactive
5. CN1CCN(c2ccc(Nc3ncc4cc(C#N)c(=O)n(C5CCCC5)c4n3)cc2)CC1 = inactive
6. CC/C(=C(/c1ccc(O)cc1)c1ccc(OCCNC)cc1)c1ccccc1 = inactive
7. CC(C)(O)[C@H]1CC[C@@](C)([C@H]2[C@@H](O)C[C@@]3(C)[C@@H]4C[C@H](O[C@@H]5O[C@H](CO)[C@@H](O)[C@H](O)[C@H]5O)[C@H]5C(C)(C)[C@@H](O[C@@H]6OC[C@@H](O)[C@H](O)[C@H]6O)CC[C@@]56C[C@@]46CC[C@]23C)O1 = inactive
8. COc1c(Nc2ncc(Cl)c(N[C@H]3[C@H](C(N)=O)[C@@H]4C=C[C@@H]3C4)n2)ccc2c1CCC(N1CCOCC1)CC2 (stereo partly specified) = inactive
9. O=C1Cc2cc(C(=O)NC3C[C@H]4CC[C@@H](C3)N4S(=O)(=O)CC3CCN(CCCC(F)(F)F)CC3)c(Cl)cc2N1 (stereo partly specified) = inactive
10. COc1cc(N2CCN(C)CC2)ccc1Nc1nccc(-c2cn(C)c3cnccc23)n1 = inactive
11. CC#CCC(C)[C@H](O)/C=C/[C@@H]1[C@H]2c3cccc(CCCC(=O)O)c3O[C@H]2C[C@H]1O (stereo partly specified) = inactive
12. CCCC[C@@H](C=O)NC(=O)[C@H](CC(C)C)NC(=O)OCc1ccccc1 = inactive
13. CC[C@@H](C)C[C@@H](C)CCCCCCCCC(=O)NC1C[C@@H](O)[C@@H](NCCN)NC(=O)[C@@H]2[C@@H](O)CCN2C(=O)[C@H]([C@H](O)CCN)NC(=O)[C@H]([C@H](O)[C@@H](O)c2ccc(O)cc2)NC(=O)[C@@H]2C[C@@H](O)CN2C(=O)[C@H]([C@@H](C)O)NC1=O (stereo partly specified) = inactive
14. COC(=O)N[C@H](C(=O)N1CCC[C@H]1c1ncc(-c2ccc3c(c2)O[C@@H](c2ccccc2)n2c-3cc3cc(-c4cnc([C@@H]5CCCN5C(=O)[C@@H](NC(=O)OC)C(C)C)[nH]4)ccc32)[nH]1)C(C)C = inactive
15. Cc1cc(Nc2cc(N)ncn2)c(=O)n2c1C(=O)NC21CCCCC1 = inactive
16. NC(=S)N/N=C/c1ncccc1N = inactive
17. O=c1[nH]nc2c3c(cccc13)NC(CN1Cc3ccccc3C1)=N2 = inactive
18. CO[C@H]1/C=C/O[C@@]2(C)Oc3c(C)c(O)c4c(O)c(c5c(c4c3C2=O)=NC2(CCN(CC(C)C)CC2)N=5)NC(=O)/C(C)=C/C=C/[C@H](C)[C@H](O)[C@@H](C)[C@@H](O)[C@@H](C)[C@H](OC(C)=O)[C@@H]1C = inactive
19. Cc1ccc(NC(=O)c2ccc(CN3CC[C@H](N(C)C)C3)c(C(F)(F)F)c2)cc1Nc1nccc(-c2cncnc2)n1 = inactive
20. COc1ccc(/C=C/C(=O)OCCC(C)C)cc1 = inactive
21. Cn1cc(-c2ccc3c(c2)CCN3C(=O)Cc2cccc(C(F)(F)F)c2)c2c(N)ncnc21 = inactive
22. FCOC(C(F)(F)F)C(F)(F)F = inactive
23. CCOC(=O)N[C@@H]1CC[C@@H]2[C@@H](C1)C[C@H]1C(=O)O[C@H](C)[C@H]1[C@H]2/C=C/c1ccc(-c2cccc(F)c2)cn1 = inactive
24. CCO[C@@H]1OC(=O)C[C@@H]1NC(=O)[C@@H]1CCCN1C(=O)[C@@H](NC(=O)c1ccc(N)c(Cl)c1)C(C)(C)C = inactive
25. CS(=O)(=O)n1cc2c(n1)CN([C@H]1CO[C@H](c3cc(F)ccc3F)[C@@H](N)C1)C2 = inactive
26. O=C(O)c1ccccc1-c1ccc(/C=c2\sc3nc4cc(Br)cnc4n3c2=O)o1 = inactive
27. Nc1c(Br)cc(Br)cc1CNC1CCC(O)CC1 (stereo unspecified) = inactive
28. NCCCC[C@@H]1NC(=O)[C@@H](Cc2c[nH]c3ccccc23)NC(=O)[C@H](c2ccccc2)NC(=O)[C@@H]2C[C@@H](OC(=O)NCCN)CN2C(=O)[C@H](Cc2ccccc2)NC(=O)[C@H](Cc2ccc(OCc3ccccc3)cc2)NC1=O (cyclo([Hyp]([CO-Ethylenediamine])[Phg][dW]KY(Bn)F)) = inactive
29. CC(C)n1cc(-c2ccc3c(c2)N(C)CC3)c2c(NS(=O)(=O)c3ccn(C)n3)ccnc21 = inactive
30. CCCCOC(=O)C(=O)Nc1cccc(-c2nn[nH]n2)c1 = inactive
31. COc1ccc(Cl)c(Nc2nc3ccccc3nc2NS(=O)(=O)c2cccc(NC(=O)C(C)(C)N)c2)c1 = inactive
